Sourced from PubChem BioAssay AID1963434

test system: 755483-174-R-J1-PDC complex spheroid growth, percent test/control; experiment: Anticancer human tumor 755483-174-R-J1-PDC patient-derived rhabdomyosarcoma cell line growth inhibition [Asc]; conditions: second compound 0.0949 µM; first compound 0.00316 µM; hits give low values
Recorded endpoint: viability, T/C (%)
Give just the numeric value; % need not be written.

q: Specify measured viability, T/C for COc1c(OCCCN2CCOCC2)ccc2c3n(c(=NC(=O)c4cnc(N)nc4)nc12)CCN3 + CCN1C(C(=O)NC23CCC(C(=O)O)(CC2)CC3)C(c2cccc(Cl)c2F)C2(C(=O)Nc3cc(Cl)ccc32)C12CCCCC2 .
a: 75.5

q: Return value of viability, T/C for input CNC(C)C(=O)NC1CN(S(=O)(=O)c2cccc(S(=O)(=O)N3CCC4CCC(C(=O)NC(c5ccccc5)c5ccccc5)N4C(=O)C(NC(=O)C(C)NC)C3)c2)CCC2CCC(C(=O)NC(c3ccccc3)c3ccccc3)N2C1=O (stereo unspecified) + CCN1C(C(=O)NC23CCC(C(=O)O)(CC2)CC3)C(c2cccc(Cl)c2F)C2(C(=O)Nc3cc(Cl)ccc32)C12CCCCC2 , no commentary.
a: 74.6

q: Kindly indicate its recorded viability, T/C. Item: Cn1ncnc1[C@H]1c2n[nH]c(=O)c3cc(F)cc(c23)N[C@@H]1c1ccc(F)cc1 + CCN1C(C(=O)NC23CCC(C(=O)O)(CC2)CC3)C(c2cccc(Cl)c2F)C2(C(=O)Nc3cc(Cl)ccc32)C12CCCCC2
a: 62.7

q: Please indicate viability, T/C recorded for CCN1CCN(Cc2ccc(Nc3ncc(F)c(-c4cc(F)c5nc(C)n(C(C)C)c5c4)n3)nc2)CC1 + CCN1C(C(=O)NC23CCC(C(=O)O)(CC2)CC3)C(c2cccc(Cl)c2F)C2(C(=O)Nc3cc(Cl)ccc32)C12CCCCC2
a: 89.3

q: For NC1CCC(NC2CC2c2ccccc2)CC1 (stereo unspecified) + CCN1C(C(=O)NC23CCC(C(=O)O)(CC2)CC3)C(c2cccc(Cl)c2F)C2(C(=O)Nc3cc(Cl)ccc32)C12CCCCC2 , write its viability, T/C.
a: 93.2

q: Dear colleague, please send me the reported viability, T/C for O=C(c1ccc(F)c(F)c1Nc1ccc(I)cc1F)N1CC(O)([C@@H]2CCCCN2)C1 + CCN1C(C(=O)NC23CCC(C(=O)O)(CC2)CC3)C(c2cccc(Cl)c2F)C2(C(=O)Nc3cc(Cl)ccc32)C12CCCCC2 when you can.
a: 113

###

tested on: 755483-174-R-J1-PDC complex spheroid growth, percent test/control; test: Anticancer human tumor 755483-174-R-J1-PDC cell line growth inhibition [Asc]; settings: second compound 1 µM; first compound 0.03 µM; hits give low values;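 also: spheroids exposed to compounds for seven days before readout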
Can you tell me viability, T/C for the items I'm about to list?
Enter your answer as a number in %; do not include the unit.

q: Let me know recorded viability, T/C for Cc1nc(N2CCC3(CC2)COC(C)C3N)c(CO)nc1Sc1ccnc(N)c1Cl (centres undefined) + Cc1c(S(C)(=O)=O)c(-c2cc(F)cc(N3CCN(c4ccc(NS(=O)(=O)c5ccc(NC(CCN6CCC(C(=O)OCCCP(=O)(O)O)CC6)CSc6ccccc6)c(S(=O)(=O)C(F)(F)F)c5)cc4)CC3)c2)c(-c2ccc(Cl)cc2)n1C(C)C , thanks.
a: 33.9

q: Read off the recorded viability, T/C for NC(=O)C(=Cn1cnc(-c2cc(C(F)(F)F)cc(C(F)(F)F)c2)n1)c1cncnc1 + CNC(C)C(=O)NC1CN(S(=O)(=O)c2cccc(S(=O)(=O)N3CCC4CCC(C(=O)NC(c5ccccc5)c5ccccc5)N4C(=O)C(NC(=O)C(C)NC)C3)c2)CCC2CCC(C(=O)NC(c3ccccc3)c3ccccc3)N2C1=O
a: 2.28

q: For the molecule CCN1C(C(=O)NC23CCC(C(=O)O)(CC2)CC3)C(c2cccc(Cl)c2F)C2(C(=O)Nc3cc(Cl)ccc32)C12CCCCC2 (centres undefined) + CNC(C)C(=O)NC1CN(S(=O)(=O)c2cccc(S(=O)(=O)N3CCC4CCC(C(=O)NC(c5ccccc5)c5ccccc5)N4C(=O)C(NC(=O)C(C)NC)C3)c2)CCC2CCC(C(=O)NC(c3ccccc3)c3ccccc3)N2C1=O , report viability, T/C.
a: 23.1

q: Recall and state the measured viability, T/C for NC(=O)C(=Cn1cnc(-c2cc(C(F)(F)F)cc(C(F)(F)F)c2)n1)c1cncnc1 + Cc1c(S(C)(=O)=O)c(-c2cc(F)cc(N3CCN(c4ccc(NS(=O)(=O)c5ccc(NC(CCN6CCC(C(=O)OCCCP(=O)(O)O)CC6)CSc6ccccc6)c(S(=O)(=O)C(F)(F)F)c5)cc4)CC3)c2)c(-c2ccc(Cl)cc2)n1C(C)C .
a: 7.14
